All values here come from patent US7884123B2.

- targetUnderTest: Aurora2 (Homo sapiens, UniProt O14965)
- Construct: A complete recombinant Aurora2 enzyme, the N-terminal of which was labeled with histidine, was expressed in E. coli; His tag (N)
- Sequence (O14965 1-403): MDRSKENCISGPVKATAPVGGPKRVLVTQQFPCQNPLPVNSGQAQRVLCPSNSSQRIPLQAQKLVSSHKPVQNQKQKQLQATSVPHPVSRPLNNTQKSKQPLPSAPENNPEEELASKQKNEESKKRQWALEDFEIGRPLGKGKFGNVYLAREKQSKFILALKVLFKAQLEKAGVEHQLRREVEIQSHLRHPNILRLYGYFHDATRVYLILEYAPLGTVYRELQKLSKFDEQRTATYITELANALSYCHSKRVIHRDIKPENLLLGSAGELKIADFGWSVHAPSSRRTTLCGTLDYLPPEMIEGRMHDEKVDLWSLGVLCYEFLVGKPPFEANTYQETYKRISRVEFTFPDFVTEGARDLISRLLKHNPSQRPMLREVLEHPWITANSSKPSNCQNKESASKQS
- method: Aurora2 kinase radioactivity scintillation test using nickel chelate
- Protocol: The inhibitory effect of the compounds toward the kinase Aurora2 is determined via a radioactivity scintillation test using nickel chelate. […] The kinase activity of Aurora2 is measured by scintillation with nickel chelate (New England Nuclear, SMP107 model). […] The radioactivity is measured in each well using a Packard Model Top Count NXT machine. […] The activity of the products was determined by measuring the inhibition of Aurora2 activity.
pIC50: −log10 of the molar value.
Reported pIC50 values for the following compounds.

Answered examples (2):
O=C(NOc1ccccc1)c1cc2c(/C=C/c3ccccc3)n[nH]c2s1	> 7.30
O=C(NOc1ccccc1)c1cc2c(-c3cc4ccccc4[nH]3)n[nH]c2s1	> 7.30

# next compound below
Would you mind telling me what pIC50 value was observed for "O=C(Nc1n[nH]c2sc(C(=O)NOc3ccccc3)cc12)c1cccs1" ?
> 7.30
